Target: α5β2γ2 subtype GABAAR (Homo sapiens, UniProt P18507+P31644)
Construct: expressed in transfected cells
Sequence (P31644 32-462): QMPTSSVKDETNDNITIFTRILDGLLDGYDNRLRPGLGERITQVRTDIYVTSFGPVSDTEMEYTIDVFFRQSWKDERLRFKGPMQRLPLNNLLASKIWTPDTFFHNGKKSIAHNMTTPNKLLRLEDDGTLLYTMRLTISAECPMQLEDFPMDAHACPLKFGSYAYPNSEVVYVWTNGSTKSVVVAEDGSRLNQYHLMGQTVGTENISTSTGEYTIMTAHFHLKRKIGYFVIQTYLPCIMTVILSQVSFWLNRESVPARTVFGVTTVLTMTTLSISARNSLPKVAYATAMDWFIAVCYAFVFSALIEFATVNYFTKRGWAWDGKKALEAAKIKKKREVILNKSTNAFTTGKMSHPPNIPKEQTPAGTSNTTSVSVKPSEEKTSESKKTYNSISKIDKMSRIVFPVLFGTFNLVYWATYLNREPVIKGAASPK
Sequence (P47870 25-512 partner limits assumed): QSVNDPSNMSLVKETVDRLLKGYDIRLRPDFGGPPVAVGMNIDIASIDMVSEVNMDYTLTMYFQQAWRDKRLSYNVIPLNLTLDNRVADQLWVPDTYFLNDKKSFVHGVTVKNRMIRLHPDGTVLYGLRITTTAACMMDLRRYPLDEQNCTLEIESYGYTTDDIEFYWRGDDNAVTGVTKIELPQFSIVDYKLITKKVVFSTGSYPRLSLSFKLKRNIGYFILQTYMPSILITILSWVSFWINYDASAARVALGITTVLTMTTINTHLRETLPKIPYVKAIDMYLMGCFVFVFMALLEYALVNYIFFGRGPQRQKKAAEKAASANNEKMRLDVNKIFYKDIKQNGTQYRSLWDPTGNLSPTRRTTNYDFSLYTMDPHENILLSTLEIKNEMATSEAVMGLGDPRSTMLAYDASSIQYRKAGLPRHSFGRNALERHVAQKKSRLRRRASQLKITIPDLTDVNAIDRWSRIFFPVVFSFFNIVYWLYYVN
Sequence (P18507 40-467 limits assumed): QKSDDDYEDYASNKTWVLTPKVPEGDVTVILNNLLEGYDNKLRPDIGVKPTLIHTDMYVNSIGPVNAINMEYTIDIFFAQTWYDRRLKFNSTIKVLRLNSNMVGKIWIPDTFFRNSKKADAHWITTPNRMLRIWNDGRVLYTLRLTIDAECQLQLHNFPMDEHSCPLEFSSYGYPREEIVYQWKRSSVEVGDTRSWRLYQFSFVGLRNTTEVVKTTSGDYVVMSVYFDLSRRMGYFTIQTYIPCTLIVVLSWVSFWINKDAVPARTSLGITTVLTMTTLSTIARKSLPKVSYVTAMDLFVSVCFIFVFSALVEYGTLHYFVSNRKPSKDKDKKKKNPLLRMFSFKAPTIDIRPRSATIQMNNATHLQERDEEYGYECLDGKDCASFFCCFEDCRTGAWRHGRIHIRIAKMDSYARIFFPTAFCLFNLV
Experiment: Positive allosteric modulator activity: potentiation of EC20 GABA current in oocytes
Type: cell-based
Settings: read-out: GABA α5 Functional Data (potentiation), @ 100 nM, reported as ranges
experimental.endpoint: activation at 0.1 µM

Task: activation at 0.1 µM for Clc1ccc2c(c1)-n1nncc1Cc1c(C#Cc3ccccn3)ncn1-2 [Compound 401] ?
Result: 5 to 20%

Task: activation at 0.1 µM for COc1ccc2c(c1)-n1nnc(C)c1Cc1c(Br)ncn1-2 [Compound 211] ?
Result: 5 to 20%

Task: activation at 0.1 µM for C#Cc1ncn2c1Cn1c(COCc3ccccc3)nnc1-c1cc(Cl)ccc1-2 [Compound 351] ?
Result: 20 to 50%

Task: activation at 0.1 µM for COc1ccc2c(c1)-c1nnc(COc3ccccc3)n1Cc1c(-c3noc(C(C)C)n3)ncn1-2 [Compound 171] ?
Result: > 50%

Task: activation at 0.1 µM for COCc1nnc2n1Cc1c(C3=N[C@@H](c4ccccc4)CO3)ncn1-c1ccc(Cl)cc1-2 [Compound 264] ?
Result: 20 to 50%

src = patent US12528819B2
